Recorded values, source ChEMBL document CHEMBL3112464.

- test_description: Inhibition of HCV genotype 1b NS3/4A protease
- Design: species or system Hepatitis C virus subtype 1b
Decide using IC50 alone. Strictly below 5 nM: true (1). Equal to or above 5 nM: false (0).

chem_smiles	assigned_class
COc1ccc2c(O[C@@H]3C[C@H]4C(=O)N[C@]5(C(=O)O)C[C@H]5/C=C\CCCCCS(=O)(=O)N4C3)cc(-c3nc(C(C)C)cs3)nc2c1C	false (0)
COc1ccc2c(O[C@@H]3C[C@H]4C(=O)N[C@]5(C(=O)NS(=O)(=O)C6CC6)C[C@H]5/C=C\CCCCCCS(=O)(=O)N4C3)cc(-c3nc(C(C)C)cs3)nc2c1C	false (0)
C=C[C@@H]1C[C@]1(NC(=O)[C@@H]1C[C@@H](Oc2cc(-c3nc(C(C)C)cs3)nc3c(C)c(OC)ccc23)[C@H]2CCCC(=O)N21)C(=O)NS(=O)(=O)C1CC1	false (0)
C=C[C@@H]1C[C@]1(NC(=O)[C@@H]1C[C@@H](Oc2cc(-c3nc(C(C)C)cs3)nc3c(C)c(OC)ccc23)[C@H]2CCCS(=O)(=O)N21)C(=O)NS(=O)(=O)C1CC1	false (0)
COc1ccc2c(O[C@@H]3C[C@H]4C(=O)N[C@]5(C(=O)NS(=O)(=O)C6CC6)C[C@H]5CCCCCCCCS(=O)(=O)N4C3)cc(-c3nc(C(C)C)cs3)nc2c1C	false (0)

IC50 under 5 nM? Item: COc1ccc2c(O[C@@H]3C[C@H]4C(=O)N[C@]5(C(=O)NS(=O)(=O)C6CC6)C[C@H]5CCCCCCCS(=O)(=O)N4C3)cc(-c3nc(C(C)C)cs3)nc2c1C
true (1)

Does the reported IC50 of the following compound sit strictly below 5 nM? COc1ccc2c(O[C@@H]3C[C@H]4C(=O)N[C@]5(C(=O)NS(=O)(=O)C6CC6)C[C@H]5/C=C\CCCCCCC(=O)N4C3)cc(-c3nc(C(C)C)cs3)nc2c1C
true (1)

Identify whether the compound COc1ccc2c(O[C@@H]3C[C@H]4C(=O)N[C@]5(C(=O)NS(=O)(=O)C6CC6)C[C@H]5/C=C\CCCCCS(=O)(=O)N4C3)cc(-c3nc(C(C)C)cs3)nc2c1C records IC50 below 5 nM.
true (1)

is_below(IC50, 5 nM) for COc1ccc2c(O[C@@H]3C[C@H]4C(=O)N[C@]5(C(=O)O)C[C@H]5/C=C\CCCCCCS(=O)(=O)N4C3)cc(-c3nc(C(C)C)cs3)nc2c1C ?
false (0)

Item COc1ccc2c(O[C@@H]3C[C@H]4C(=O)N[C@]5(C(=O)NS(=O)(=O)C6CC6)C[C@H]5/C=C\CCCCCC(=O)N4C3)cc(-c3nc(C(C)C)cs3)nc2c1C : IC50 beneath 5 nM, strictly?
true (1)
